# test-details: inhibitors of CD8+ T cell-vesicle binding, pilot screen, LFA-1/ICAM-1 modulator project, MLPCN validation set, flow cytometry (AID 2523);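 also: mean PE anti-B7-1 fluorescence of CD8+ cells relative to row control; 100% = QL9-loaded vesicles with DMSO vehicle in the same plate row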
# measurement-parameters: 2C mouse CD8+ T cells, at 7 µM
Calls of active or inactive are those of the source.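 The calls were made as follows: active = response below a set limit, under 55% cells CD8-positive and vesicle-bound, and CD8 cells' 90th-percentile brightness under 279; inactive = the rest.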
Could you please pick one outcome from this set? active, inactive

Sample answers from the record:
molecule	label
CC(C)NC(C)C(=O)c1ccc2ccccc2c1 (configuration not stated)	inactive
Fc1ccc(C(OCCN2CCCC2)c2ccc(Br)cc2)cc1 (configuration not stated)	inactive
Cc1cc(OCc2cc(C(=O)O)oc2C)c2c3c(c(=O)oc2c1)CCCC3	inactive
OCc1cnc[nH]1	inactive

Next molecule, please.
For Cc1cc2c(C(C)C)c(O)c(O)c(C=O)c2c(O)c1-c1c(C)cc2c(C(C)C)c(O)c(O)c(C=O)c2c1O , what call appears in the results of this test?
inactive

* * *

# target-or-system: Lethal factor (Bacillus anthracis)
# test-details: Lethal factor protease inhibitors, Bacillus anthracis, multiplex microsphere cleavage assay, validation set (AID 588461)
# measurement-parameters: flow cytometry, at 10 µM, active compounds read high
test-readout: inhibition (%)
Numbers only, in %.

Worked cases, inhibition given:
compound	unit-abbreviation	inhibition
O=C(c1ccc(O)cc1)c1ccc(O)cc1O	%	-0.6
OC1CCCCC1N1CCC(c2ccccc2)CC1 (stereo not drawn)	%	6.3

Quick one: inhibition for N/C(=N\OS(=O)(=O)c1ccc2ccccc2c1)c1cccnc1 ?
0.2

* * *

Give inhibition for every item shown.
# target-or-system: Botulinum neurotoxin type A (Clostridium botulinum) (UniProt P0DPI0)
# Sequence (P0DPI0 whole entry, looked up): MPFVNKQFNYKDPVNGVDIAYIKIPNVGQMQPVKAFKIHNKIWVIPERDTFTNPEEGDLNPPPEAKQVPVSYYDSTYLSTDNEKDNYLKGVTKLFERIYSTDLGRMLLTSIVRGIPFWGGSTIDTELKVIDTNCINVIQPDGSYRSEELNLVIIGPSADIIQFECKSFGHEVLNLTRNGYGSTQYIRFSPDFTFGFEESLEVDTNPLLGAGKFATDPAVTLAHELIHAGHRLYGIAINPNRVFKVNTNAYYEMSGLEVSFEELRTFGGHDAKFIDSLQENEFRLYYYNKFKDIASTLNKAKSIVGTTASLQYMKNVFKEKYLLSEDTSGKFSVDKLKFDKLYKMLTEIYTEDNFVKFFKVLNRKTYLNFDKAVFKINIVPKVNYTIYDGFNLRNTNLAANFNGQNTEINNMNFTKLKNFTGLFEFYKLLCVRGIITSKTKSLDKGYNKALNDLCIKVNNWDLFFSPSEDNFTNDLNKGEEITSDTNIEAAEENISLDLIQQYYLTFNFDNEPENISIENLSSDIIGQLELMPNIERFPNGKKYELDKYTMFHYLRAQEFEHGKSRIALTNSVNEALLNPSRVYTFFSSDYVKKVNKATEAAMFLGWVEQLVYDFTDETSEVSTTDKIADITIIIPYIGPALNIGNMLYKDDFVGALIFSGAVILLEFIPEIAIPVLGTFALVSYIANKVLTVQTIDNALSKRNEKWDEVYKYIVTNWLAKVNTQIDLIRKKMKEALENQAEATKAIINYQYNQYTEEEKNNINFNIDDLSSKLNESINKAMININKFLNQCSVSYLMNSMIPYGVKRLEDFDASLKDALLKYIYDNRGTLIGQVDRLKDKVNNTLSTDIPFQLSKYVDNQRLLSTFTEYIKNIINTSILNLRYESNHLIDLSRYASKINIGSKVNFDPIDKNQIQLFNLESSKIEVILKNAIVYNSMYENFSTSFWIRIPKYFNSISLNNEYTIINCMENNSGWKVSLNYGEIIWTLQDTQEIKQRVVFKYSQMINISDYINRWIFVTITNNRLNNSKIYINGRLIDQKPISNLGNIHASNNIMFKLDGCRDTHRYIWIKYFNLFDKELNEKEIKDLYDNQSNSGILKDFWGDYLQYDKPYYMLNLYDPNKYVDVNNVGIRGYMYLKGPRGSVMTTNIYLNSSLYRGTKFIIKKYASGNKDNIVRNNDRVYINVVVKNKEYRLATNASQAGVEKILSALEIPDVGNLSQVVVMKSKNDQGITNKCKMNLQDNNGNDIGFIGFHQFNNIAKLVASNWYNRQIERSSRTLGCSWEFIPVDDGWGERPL
# test-details: BoNT/A light chain protease inhibitors, biochemical, multiplex microsphere flow cytometry, validation set (AID 588460)
# measurement-parameters: at 10 µM, active compounds read high
Numbers only, in %.

compound	measured-number
COc1ccc2c(c1)[nH]c1c(=O)n(Cc3ccccn3)cnc12	-1
CCC(=O)Nc1ccc(C(=O)N2CCN(C(=O)c3ccco3)CC2)cc1	-1.9
COc1cccc(-n2c(C)c3c(OC)cccc(=O)c3c2C)c1	-0.7
O=c1c2ccccc2[se]n1-c1ccccc1	92.6

Please look at the items below and tell me inhibition for each one, in order.
1. Cn1c2c(c(=O)[nH]c1=O)C(c1ccc(O)cc1)C1=C(N2)c2ccccc2C1=O (stereo unspecified)
2. COc1ccc2[nH]cc(C(=O)CCl)c2c1
3. COc1cc2c(cc1OC)C(Cc1ccc(O)cc1)N(C)CC2 (stereo unspecified)
4. O=C(O)C1CCN(C(=O)COc2ccc3c4c(c(=O)oc3c2)CCC4)CC1
5. NC(N)=NC(=O)Cc1c(Cl)cccc1Cl
6. CCn1ccnc1CN(C)Cc1cn(-c2cccc(C)c2)nc1-c1cccc(F)c1
7. COc1cccc2c(O)cc(=O)n(C)c12
8. CCOc1ccc(N2C(=O)CC(NCCNc3ccc([N+](=O)[O-])cn3)C2=O)cc1 (stereo unspecified)

[-0.5, -1.3, 0, -1.1, -1.8, -0.3, -0.5, 1.6]

* * *

# target-or-system: AP-2 complex subunit beta (Homo sapiens) (UniProt P63010)
# Sequence (P63010 whole entry, looked up, one chain of several): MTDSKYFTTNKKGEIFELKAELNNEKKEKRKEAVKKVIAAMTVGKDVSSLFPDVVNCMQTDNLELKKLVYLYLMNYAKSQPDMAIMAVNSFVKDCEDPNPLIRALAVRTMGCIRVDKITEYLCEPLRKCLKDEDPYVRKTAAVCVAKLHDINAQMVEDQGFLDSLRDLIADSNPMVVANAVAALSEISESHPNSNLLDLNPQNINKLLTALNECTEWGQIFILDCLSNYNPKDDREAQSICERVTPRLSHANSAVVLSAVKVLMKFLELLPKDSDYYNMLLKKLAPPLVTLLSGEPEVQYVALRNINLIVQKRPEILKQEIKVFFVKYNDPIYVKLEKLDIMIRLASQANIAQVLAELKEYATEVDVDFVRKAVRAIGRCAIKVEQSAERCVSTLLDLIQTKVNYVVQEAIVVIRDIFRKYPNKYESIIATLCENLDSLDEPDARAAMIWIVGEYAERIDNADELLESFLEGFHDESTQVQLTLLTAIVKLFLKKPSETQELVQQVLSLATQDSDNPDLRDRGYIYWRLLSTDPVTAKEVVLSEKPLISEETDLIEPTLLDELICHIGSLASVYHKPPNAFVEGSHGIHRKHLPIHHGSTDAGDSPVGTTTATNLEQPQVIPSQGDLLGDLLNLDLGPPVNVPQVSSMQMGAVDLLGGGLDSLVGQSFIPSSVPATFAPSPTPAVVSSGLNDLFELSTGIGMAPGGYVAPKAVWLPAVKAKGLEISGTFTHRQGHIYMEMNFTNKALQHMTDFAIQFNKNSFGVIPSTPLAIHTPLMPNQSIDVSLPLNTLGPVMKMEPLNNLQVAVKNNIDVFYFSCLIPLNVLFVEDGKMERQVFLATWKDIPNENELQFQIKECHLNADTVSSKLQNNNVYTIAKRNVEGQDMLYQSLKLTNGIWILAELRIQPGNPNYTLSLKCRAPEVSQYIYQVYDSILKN
# test-details: inhibitors of arrestin peptide binding to AP2, pilot screen, biochemical, validation set, GST-AP2 beads, flow cytometry (AID 504541);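 also: AP2 carries R879A mutation and is captured from E. coli lysate; bead-bound FITC arrestin peptide fluorescence measuring arrestin peptide binding to AP2; 0% = DMSO wells and 100% = excess unlabeled arrestin peptide control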
# measurement-parameters: FITC arrestin peptide, at 10 µM, active compounds read high
Give inhibition for every item shown.
One number for each entry, in %.

compound	measured-number
CCCC(C)(COC(N)=O)COC(=O)NC(C)C (stereo not given)	-2.17

Please look at the items below and tell me inhibition for each one, in order.
1. COC1=CC(=O)OC(/C=C/c2ccccc2)C1 (stereo not given)
2. [N-]=[N+]=NC1C[C@H](n2ccc(=O)[nH]c2=O)O[C@@H]1CO (stereo not given in full)

47
42

Please look at the items below and tell me inhibition for each one, in order.
1. CC(C)[C@@]1(NC(=O)[C@@H]2C[C@@H]3c4cccc5[nH]cc(c45)C[C@H]3N(C)C2)O[C@@]2(O)[C@@H]3CCCN3C(=O)[C@H](Cc3ccccc3)N2C1=O
2. O=C1CN=C(c2ccccc2F)c2cc(Cl)ccc2N1
3. CC[C@@H](CO)NC(=O)[C@@H]1C=C2c3cccc4c3c(cn4C)C[C@H]2N(C)C1
4. CC12CN3CC(C)(CN(C1)C3c1cccs1)C2O (stereo not given)
5. CN1[C@@H]2CC[C@H]1CC(OC(=O)C1C=Nc3ccccc31)C2 (stereo not given in full)
6. CC/C(=C\C=C\[C@@H]1C=C[C@@H]2CCC[C@H]2[C@@H]1C(=O)c1ccc[nH]1)[C@@H]1O[C@@H]([C@@H](C)C(=O)O)CC[C@@H]1C
7. O=C1C=Cc2ccccc2C1=O

[0.81, 43.2, 0.36, 1.53, -15.4, 0.83, 8]
